Values from PubChem BioAssay (EPA / NIEHS)

EXPERIMENT_DESCRIPTION: BSK_BE3C_SRB: Viability Assessment in the BioMAP Diversity Plus: BE3C Assay (AID 2283028)
TEST_PARAMETERS: primary human bronchial epithelial cells
Activity calls are given as the source filed them. How the source made its calls: active means hit-call score of the fitted dose curve at least 0.9, where 1 is the maximum; inactive means score below 0.9.
I would appreciate it if you answered using one of these outcomes: 1.0 (active), 0.0 (inactive)

input: Give the logged outcome of this assay for the following molecule: Nc1ccc([N+](=O)[O-])cc1
output: 0.0

input: Give the logged outcome of this assay for the following molecule: Cn1cc(-c2ccccc2)c(=O)c(-c2cccc(C(F)(F)F)c2)c1
output: 0.0

input: Give the logged outcome of this assay for the following molecule: Clc1ccc(C(c2ccc(Cl)cc2)C(Cl)Cl)cc1
output: 0.0

input: Give the logged outcome of this assay for the following molecule: c1ccc2c(c1)oc1ccccc12
output: 0.0

input: Give the logged outcome of this assay for the following molecule: [Cl-].[Cl-].[Hg+2]
output: 1.0

input: Give the logged outcome of this assay for the following molecule: COc1cc(C=O)cc2c1[C@H](COC(N)=O)[C@]1(OC(C)=O)ON2C[C@H]2[C@@H]1N2C(C)=O
output: 1.0

input: Give the logged outcome of this assay for the following molecule: O=[N+]([O-])c1ccc(Oc2ccc(Cl)cc2Cl)cc1
output: 0.0

input: Give the logged outcome of this assay for the following molecule: COP(=S)(OC)SCN1C(=O)c2ccccc2C1=O
output: 0.0

input: Give the logged outcome of this assay for the following molecule: CN(C)[C@@H]1C(=O)C(C(N)=O)=C(O)[C@@]2(O)C(=O)C3=C(O)c4c(O)cccc4[C@@](C)(O)[C@H]3C[C@@H]12
output: 0.0

input: Give the logged outcome of this assay for the following molecule: Nc1ccc(Cl)cc1N
output: 0.0

input: Give the logged outcome of this assay for the following molecule: OCCCBr
output: 0.0

input: Give the logged outcome of this assay for the following molecule: COC(=O)c1ccccc1N
output: 0.0

----------
EXPERIMENT_DESCRIPTION: CCTE_Shafer_MEA_acute_burst_percentage_std: CCTE's Neural Acute Assay for Standard Deviation of Burst Percentage, Shafer Lab (AID 2284018);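 further: fitted in the negative direction so actives lower burst percentage SD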
Active and inactive are the calls of the source. How the source made its calls: active means hit-call score of the fitted dose curve at least 0.9, where 1 is the maximum; inactive means score below 0.9.
I would appreciate it if you answered using one of these outcomes: active, inactive

input: Give the logged outcome of this assay for the following compound: O=P(OCCCl)(OCCCl)OCCCl
output: inactive

input: Give the logged outcome of this assay for the following compound: ClC1=C(Cl)[C@]2(Cl)[C@H]3[C@H]([C@@H]4C=C[C@H]3C4)[C@@]1(Cl)C2(Cl)Cl
output: inactive

input: Give the logged outcome of this assay for the following compound: Clc1ccc(C(c2ccc(Cl)cc2)C(Cl)(Cl)Cl)cc1
output: active

input: Give the logged outcome of this assay for the following compound: ClCCOCCCl
output: inactive

input: Give the logged outcome of this assay for the following compound: O=C(Oc1ccc(Br)cc1)N1CCN2CCC1CC2
output: inactive

input: Give the logged outcome of this assay for the following compound: c1ccc(NNc2ccccc2)cc1
output: inactive

input: Give the logged outcome of this assay for the following compound: Cc1ccc(N)c(N)c1
output: inactive

input: Give the logged outcome of this assay for the following compound: N#CC(Br)Br
output: inactive

input: Give the logged outcome of this assay for the following compound: CCCCCCCCn1sccc1=O
output: inactive

input: Give the logged outcome of this assay for the following compound: O=[N+]([O-])c1ccc(Oc2ccc(Cl)cc2Cl)cc1
output: inactive

input: Give the logged outcome of this assay for the following compound: Cc1cc(N=Nc2ccccc2C)ccc1N
output: active

input: Give the logged outcome of this assay for the following compound: O=Cc1ccco1
output: inactive

input: Give the logged outcome of this assay for the following compound: [Cl-].[Cl-].[Hg+2]
output: inactive

input: Give the logged outcome of this assay for the following compound: CCN(CC)N=O
output: inactive

input: Give the logged outcome of this assay for the following compound: CCC(C)c1ccc(O)cc1 (configuration not stated)
output: inactive

input: Give the logged outcome of this assay for the following compound: CC(C)(O)c1cnn2c(-c3ccc(F)c(-c4c(F)cccc4C#N)c3)cnc2n1
output: inactive

input: Give the logged outcome of this assay for the following compound: COC(=O)Nc1nc2ccccc2[nH]1
output: inactive

----------
EXPERIMENT_DESCRIPTION: CCTE_Shafer_MEA_acute_network_burst_percentage: CCTE's Neural Acute Assay for Percentage of Network Bursts, Shafer Lab (AID 2284022);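 further: curves fitted for loss so actives lower network burst percentage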
Activity calls are given as the source filed them. Rule for the calls: active = hit-call score of the fitted dose curve at least 0.9, where 1 is the maximum; inactive = score below 0.9.
MEASUREMENT_NAME: AC50

MOLECULE: O=Cc1ccco1
AC50: inactive
//
MOLECULE: CC(C)(C)C(O)(CCc1ccc(Cl)cc1)Cn1cncn1 (stereo unspecified)
AC50: inactive
//
MOLECULE: N#CC(Br)Br
AC50: inactive
//
MOLECULE: O=P(OCCCl)(OCCCl)OCCCl
AC50: inactive
//
MOLECULE: CCN(CC)N=O
AC50: inactive

Read the next record carefully.
input: Name the recorded AC50 of the molecule listed here: Clc1ccc(C(c2ccc(Cl)cc2)C(Cl)Cl)cc1
output: 7.42 µM (active)

----------
STUDY_TARGET: Heat shock factor protein 1 (Homo sapiens)
EXPERIMENT_DESCRIPTION: ATG_HSE_CIS: Attagene CIS-FACTORIAL HepG2 Assay for human Heat Shock Transcription Factor 1 (HSE) (AID 2282953)
TEST_PARAMETERS: HepG2 HSE cis-reporter, Attagene RNA transcription; actives raise or lower the signal
Procedure: ATG_CIS is a cell-based, multiplexed-readout assay that uses HepG2, a human liver cell line, with measurements taken at 24 hours after chemical dosing in a 24-well plate.ATG_HSE_CIS is one of 52 assay component(s) measured or calculated from the ATG_CIS assay. […] This assay endpoint, ATG_HSE_CIS, was analyzed with bidirectional fitting relative to DMSO as the negative control and baseline of activity. […]
Active and inactive are the calls of the source. Rule for the calls: active = hit-call score of the fitted dose curve at least 0.9, where 1 is the maximum; inactive = score below 0.9.
I would appreciate it if you answered using one of these outcomes: active, inactive

input: Give the logged outcome of this assay for the following compound: c1ccc2c(c1)-c1cccc3cccc-2c13
output: inactive

input: Give the logged outcome of this assay for the following compound: CO[C@@H]1[C@H](OC(=O)NC(=O)CCl)CC[C@]2(CO2)[C@H]1[C@@]1(C)O[C@@H]1CC=C(C)C
output: inactive

input: Give the logged outcome of this assay for the following compound: CC(C)(C)OOC(C)(C)CCC(C)(C)OOC(C)(C)C
output: inactive

input: Give the logged outcome of this assay for the following compound: Clc1ccccc1Cl
output: inactive

input: Give the logged outcome of this assay for the following compound: O=[N+]([O-])c1ccc(Oc2ccc(Cl)cc2Cl)cc1
output: inactive

input: Give the logged outcome of this assay for the following compound: Nc1ccc([N+](=O)[O-])cc1
output: inactive

input: Give the logged outcome of this assay for the following compound: [Cl-].[Cl-].[Hg+2]
output: inactive

input: Give the logged outcome of this assay for the following compound: CCN(CC)CCO
output: inactive

input: Give the logged outcome of this assay for the following compound: [O-][Cl+]O
output: inactive

input: Give the logged outcome of this assay for the following compound: COc1cc(C=O)cc2c1[C@H](COC(N)=O)[C@]1(OC(C)=O)ON2C[C@H]2[C@@H]1N2C(C)=O
output: active

input: Give the logged outcome of this assay for the following compound: c1ccc2c(c1)oc1ccccc12
output: inactive

input: Give the logged outcome of this assay for the following compound: COC(=O)Nc1nc2ccccc2[nH]1
output: inactive

input: Give the logged outcome of this assay for the following compound: Cc1cccc(N)c1N
output: inactive

----------
Read-out: Heat shock 70 kDa protein 1 (HSPA1A), gene 3303
EXPERIMENT_DESCRIPTION: LTEA_HepaRG_HSPA1A: Life Technologies and Expression Analysis (LTEA) Assay for Heat shock 70 kDa protein 1 (HSPA1A) using HepaRG (AID 2283502)
TEST_PARAMETERS: mRNA level, 48 h; actives raise or lower the signal
Description: LTEA_HepaRG is a cell based, multiplexed-readout assay that uses HepaRG, a human liver cell line, with measurements taken at 48 hours after chemical dosing on a 96-well plate.LTEA_HepaRG_HSPA1A is one of 102 assay component(s) measured in the LTEA HepaRG cell culture assay. It is a marker of Oxidative Stress.Data from the assay component LTEA_HepaRG_HSPA1A was analyzed into 1 endpoint. […]
Calls of active or inactive are those of the source. How the source made its calls: active means hit-call score of the fitted dose curve at least 0.9, where 1 is the maximum; inactive means score below 0.9.
I would appreciate it if you answered using one of these outcomes: label 1 (active), label 0 (inactive)

input: Give the logged outcome of this assay for the following molecule: CN(C)C(=O)Nc1ccc(Cl)cc1
output: label 0

input: Give the logged outcome of this assay for the following molecule: CS(=O)(=O)NC(=O)c1cc(Oc2ccc(C(F)(F)F)cc2Cl)ccc1[N+](=O)[O-]
output: label 0

input: Give the logged outcome of this assay for the following molecule: N#CC(Br)Br
output: label 0

input: Give the logged outcome of this assay for the following molecule: CCOC(=O)[C@]1(c2ccccc2)Oc2ccccc2[C@@H]1N
output: label 0

input: Give the logged outcome of this assay for the following molecule: Clc1ccc(Cl)c(Cl)c1
output: label 0

input: Give the logged outcome of this assay for the following molecule: Nc1ccc(Cl)cc1N
output: label 1
